- Tested System: Caspase-7 (Homo sapiens)
- Method Notes: procaspase-7 activators, counter-screen for procaspase-3 activator project, biochemical, absorbance, triplicate, human (AID 488941);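 also: 0% = DMSO wells and 100% = DMSO plus 5 µM procaspase-7 enzyme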
- Experimental Conditions: recombinant procaspase-7, Ac-DEVD-pNA absorbance; at 8.5 µM; stronger effect = higher value; asp23/198/206-to-Ala mutant, cannot self-cleave
Some of the results follow.
Endpoint: activation (%)
Answer format: numeric, % implied, no suffix.

Read the entry COc1ccc(-c2sc3ccc(OC)cc3c2C#Cc2ccccn2)cc1 and write its reported activation. 6.29

Could you please provide reported activation for COc1ccc2nc(Nc3nc4ccc(NC(C)=O)cc4s3)sc2c1 ? Thanks! -1.13

Give the reported activation for this compound. CN1CCN(CCCNC(=O)c2ccc(/C=C3\Oc4ccccc4N(Cc4ccc(Cl)cc4)C3=O)cc2)CC1 -19.9

Identify the reported activation for the following entry. COC(=O)c1cnc(Nc2cc(C)ccc2OC)c2ccccc12 -21.2

// Input: CCOc1ccc2nc(NCCNS(=O)(=O)c3ccccc3)c(C#N)cc2c1 . Output its activation only. -21

Give activation for the following compound: Cc1nn(C)cc1CNC(=O)Nc1ccc(Cl)cc1 1.34

Retrieve activation measured for COc1ccc(CCNC(=O)COC(=O)c2ccc[nH]c2=O)cc1 and print it. 3.85
